protocol: yeast display, Sf9 membrane polyspecificity reagent, FACS + sequencing; frameworks hold sequencing errors
parameterMeasured: polyreactivity (PSR sort gate)

{"columns": ["sequenceChain", "polyreactivity (PSR sort gate)"],
 "data": [
  ["QFQLVESGGGLVQAGGSLRLICAASGFIFRTYAMGWYRQAPGKAREFVAAITFSAGSTYYADSVKGRFTISRDNAKNTVYLQMNSLLPEDSAVYDCNVLKSWYGYSVTGRYVYWGQGTQVTVSS", "low polyreactivity"],
  ["QVQVVESGVGLVQSGGSLRLSYAASGSIFIPYPMGWYRQAPGKERELVAAISSSGSTYYADSVKGRFTISRDNAKNTFYLQMNSLKPEDTAVYYCAAERHYSYSSYDDWGQGTQVTVSS", "low polyreactivity"],
  ["QVQLVESGGGIVQAGGSLRLSCAASGRIVRNYAMGWYRQAPGKERELVAGITRGGRTNYAHSVKGRFTISRDNAKNTVYLQMNSLKPEDTAVYYCNKVSSFGYYYWGQGTQVTVSS", "high polyreactivity"],
  ["QVQLVESGGGLVQSGGSLRLSCAASGSTFVSNAMGWYRQAPGKERELVAAINGSGGITYYADSVKGRFTISRDNAKNTVYLQMNSLKPEDTAVYYCAAEYDGPSTWVDYYYHYGYWGQGTQVTVSS", "low polyreactivity"],
  ["QVQLVESGGGLVQAGGSLRLSCAASGLTFNRNAMGWYRQAPGKERELVATISGSGASTYYADSVKGRFTISRDYAKNTVYLQMNSLKPEDTAVYDCAARWHYSWGSYGFDYWGQGTQVTVSS", "high polyreactivity"]
]}

Give me polyreactivity (PSR sort gate) for each of these sequences, listed below.
1. QVQLVESGGGLVQAGGSLRLSCAASGLTFRINTMGWYRQAPGKERELVASISKSGSSTYYADSVKGRFTISRDNAKNTVYLQMNSLKPEDTAVYYCAARTRTLYVTYYSWGQGTQVTVSS
2. QVQLVESGGGLVQAGGSLRLSCAASGRTFSGYAMGWYRQAPGKERELVAAITGRGGSTYYADSVKGRFTISRDNAKNTVYLQMNSLKPEDTAVYYCAAYGIWYRVDYWGQGTQVTVSS
3. QVQLVESGGGLVQAGCSLRLSCAASGGTFSLNAMGCYRQAPGKERELVAAITWTGDRTYYADSVKGRFTISRDNAKNTVYLQMNSLKPEDTAVYYCAAVGGYYPGDYWGQGTQVTVSS
4. QVQLVESGGGLVQAGGSLRLSCAASGSTFPWYVMGGYRQAPGKERELVAAISLSGGRTYYADSVMGRFTISRDNAKNRVYLQMNSLKPEDTAVYYCAAEFKLVSHTYYYWGQGTQVTVSS
5. QFQLVESGGGLVQAGGSLRLSCAASGRIFVYNDMVWYRQAPGKEREFVATITSSGGRTYYADSVKGRFTISRDNAKNTVYLQMNRLKPEDTAVYYCNKVGYSNLLGYDYWGQGTQVTVSS
6. QVQLVESGGGLVQAGGSLRLSCAATGSTLVPNAMGWYRQAPGKERELVAAITRGTITHYADSVKGRFTISRDNAKNTVYVQMNSLKPEDTAVYYCNADVSLDDYDYWGQGTQVTVSS

Response line:
high polyreactivity
high polyreactivity
low polyreactivity
low polyreactivity
high polyreactivity
low polyreactivity
